Target: AmtB (Escherichia coli)
Construct: pelB signal peptide (N, cleaved yes); 10x His-tag (N, cleaved yes); made in house; host or cells: Escherichia coli C41(DE3), pET15b
Assay: Native MS lipid titration, lipid binding to AmtB (equilibrium-coupled binding model)
Details: KD,AL2, second lipid binding to AmtB, 50 µM ADP, 298 K
Method: A stock of ADP was prepared by dissolving the ammonium salt form of ADP in water followed by adjusting the pH with ammonium hydroxide to 7.0. Serial dilutions into MS buffer (200 mM ammonium acetate, 0.5% C8E4, and pH adjusted to 7.4 with ammonium hydroxide) supplemented with 5 mM BME was performed to prepare ADP at certain concentrations. Phospholipids were prepared as previously described. […] Phospholipid concentration was determined by phosphorus analysis.
Binarize Kd at 40 µM; below is met, at or above is not met.

{"COMPOUND": "CCCCCCCC/C=C\\CCCCCCCC(=O)O[C@H](COC(=O)CCCCCCCCCCCCCCCCC)COP(=O)(O)OCCN", "ASSAY_TARGET": "AmtB (Escherichia coli)", "LABEL_VALUE": "not met"}
{"COMPOUND": "CCCCCCCCCCCCCC(=O)OC[C@H](COP(=O)(O)OCC(O)CO)OC(=O)CCCCCCCCCCCCC (stereo partly shown)", "ASSAY_TARGET": "AmtB (Escherichia coli)", "LABEL_VALUE": "met"}
{"COMPOUND": "CCCCCCCC/C=C\\CCCCCCCC(=O)OC[C@H](COP(=O)(O)OCCN)OC(=O)CCCCCCC/C=C\\CCCCCCCC [DOPE (cis)]", "ASSAY_TARGET": "AmtB (Escherichia coli)", "LABEL_VALUE": "met"}
{"COMPOUND": "CCCCCCCC/C=C\\CCCCCCCC(=O)O[C@H](COC(=O)CCCCCCCCCCCCCCC)COP(=O)(O)OCCN", "ASSAY_TARGET": "AmtB (Escherichia coli)", "LABEL_VALUE": "not met"}
{"COMPOUND": "CCCCCCCC/C=C\\CCCCCCCC(=O)O[C@H](COC(=O)CCCCCCCCCCCCCCC)COP(=O)(O)O", "ASSAY_TARGET": "AmtB (Escherichia coli)", "LABEL_VALUE": "met"}
{"COMPOUND": "CCCCCCCCCCCCCCCC(=O)OC[C@H](COP(=O)(O)OCC(O)CO)OC(=O)CCCCCCCCCCCCCCC (stereo partly shown)", "ASSAY_TARGET": "AmtB (Escherichia coli)", "LABEL_VALUE": "not met"}
{"COMPOUND": "CCCCCCCC/C=C/CCCCCCCC(=O)OC[C@H](COP(=O)(O)OCCN)OC(=O)CCCCCCC/C=C/CCCCCCCC [DOPE (trans)]", "ASSAY_TARGET": "AmtB (Escherichia coli)", "LABEL_VALUE": "not met"}

* * *

Target: AmtB–GlnK interaction (Escherichia coli, UniProt P69681)
Construct: pelB signal peptide (N, cleaved yes); 10x His-tag (N, cleaved yes); made in house; host or cells: AmtB: Escherichia coli C41(DE3), pET15b; stGlnK: Escherichia coli ArcticExpress (DE3) RIL, pET28b
Sequence (P0AC55 whole entry Y51F): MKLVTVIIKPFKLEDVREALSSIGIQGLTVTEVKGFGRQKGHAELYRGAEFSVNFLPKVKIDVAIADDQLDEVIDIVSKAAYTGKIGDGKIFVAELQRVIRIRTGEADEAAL
Sequence (P69681 23-428): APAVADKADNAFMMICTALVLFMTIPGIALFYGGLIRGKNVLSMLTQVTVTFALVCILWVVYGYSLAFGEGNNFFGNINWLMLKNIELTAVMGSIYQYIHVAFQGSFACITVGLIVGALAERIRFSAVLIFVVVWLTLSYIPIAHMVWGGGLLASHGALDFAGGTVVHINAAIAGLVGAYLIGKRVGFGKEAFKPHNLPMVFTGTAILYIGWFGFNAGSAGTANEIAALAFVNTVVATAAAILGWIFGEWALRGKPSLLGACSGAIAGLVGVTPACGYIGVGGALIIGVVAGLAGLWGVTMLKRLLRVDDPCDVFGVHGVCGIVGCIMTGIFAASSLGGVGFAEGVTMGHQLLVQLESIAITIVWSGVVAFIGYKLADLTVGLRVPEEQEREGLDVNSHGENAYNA
Experiment: Native MS lipid titration, GlnK binding to apo or lipid-bound AmtB; coupling factors (allosteric modulation)
Details: KD,AL2G, GlnK binding AmtB bound to 2 lipids, 50 µM ADP, 298 K
Criterion: Kd strictly under 400 nM. Met: met. Not met: not met.

{"COMPOUND": "CCCCCCCC/C=C\\CCCCCCCC(=O)O[C@H](COC(=O)CCCCCCCCCCCCCCCCC)COP(=O)(O)OCCN", "LABEL_VALUE": "met"}
{"COMPOUND": "CCCCCCCC/C=C\\CCCCCCCC(=O)OC[C@H](COP(=O)(O)OCCN)OC(=O)CCCCCCC/C=C\\CCCCCCCC [DOPE (cis)]", "LABEL_VALUE": "met"}
{"COMPOUND": "CCCCCCCCCCCCCC(=O)OC[C@H](COP(=O)(O)OCC(O)CO)OC(=O)CCCCCCCCCCCCC (some centres unmarked)", "LABEL_VALUE": "not met"}
{"COMPOUND": "CCCCCCCCCCCCCCCC(=O)OC[C@H](COP(=O)(O)OCC(O)CO)OC(=O)CCCCCCCCCCCCCCC (some centres unmarked)", "LABEL_VALUE": "met"}
{"COMPOUND": "CCCCCCCC/C=C/CCCCCCCC(=O)OC[C@H](COP(=O)(O)OCCN)OC(=O)CCCCCCC/C=C/CCCCCCCC [DOPE (trans)]", "LABEL_VALUE": "met"}
{"COMPOUND": "CCCCCCCCCCCC(=O)OC[C@H](COP(=O)(O)OCC(O)CO)OC(=O)CCCCCCCCCCC (some centres unmarked)", "LABEL_VALUE": "met"}
{"COMPOUND": "CCCCCCCC/C=C\\CCCCCCCC(=O)O[C@H](COC(=O)CCCCCCCCCCCCCCC)COP(=O)(O)O", "LABEL_VALUE": "not met"}
{"COMPOUND": "CCCCCCCC/C=C\\CCCCCCCC(=O)O[C@H](COC(=O)CCCCCCCCCCCCCCC)COP(=O)([O-])OCC[N+](C)(C)C", "LABEL_VALUE": "met"}
{"COMPOUND": "CCCCCCCC/C=C\\CCCCCCCC(=O)O[C@H](COC(=O)CCCCCCCCCCCCCCC)COP(=O)(O)OCCN", "LABEL_VALUE": "met"}
